TARGET_DESC: human recombinant A3AR (expressed in HEK-293 cells) (Homo sapiens, UniProt P0DMS8)
Construct: host or cells: HEK-293 cells
Sequence (P0DMS8 whole entry): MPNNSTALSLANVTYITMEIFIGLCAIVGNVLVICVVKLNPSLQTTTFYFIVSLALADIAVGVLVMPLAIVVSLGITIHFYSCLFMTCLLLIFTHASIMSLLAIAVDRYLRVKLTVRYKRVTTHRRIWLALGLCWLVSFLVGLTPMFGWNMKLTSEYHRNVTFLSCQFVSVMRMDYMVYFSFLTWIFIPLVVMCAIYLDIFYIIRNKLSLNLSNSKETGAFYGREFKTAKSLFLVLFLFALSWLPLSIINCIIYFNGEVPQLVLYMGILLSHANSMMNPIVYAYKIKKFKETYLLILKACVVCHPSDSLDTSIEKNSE
PROTOCOL_DESCRIPTION: Adenosine receptors antagonism assay (Eurofins), [125I]-AB-MECA radioligand competition
Type: binding
TEST_SETTINGS: [125I]-AB-MECA 0.15 nM, r.t., 120 min; IC50 from dose-response curves; read-out: Potency Class A3AR
pIC50: −log10 of the molar value.
Provide the reported pIC50 of each item.

Lookup: Which pIC50 reading was recorded for the molecule CCC(CC)Nc1cc(NCc2ccccc2OC)c2nnc(C(C)C)n2n1 [compound 73] ?
Found: 8.00 to 9.00

Lookup: What about CCC(CC)Nc1cc(Nc2ccncn2)c2nnc(C3CC3)n2n1 [compound 177] ?
Found: > 9.00

Lookup: What about c1ccc(CNc2cc(NCC3CCC3)nn3c(C4CC4)nnc23)nc1 [compound 204] ?
Found: 8.00 to 9.00

Lookup: And CC(C)c1nnc2c(NCc3ccccc3)cc(NCCCCO)nn12 [compound 13] ?
Found: 7.00 to 8.00

Lookup: Follow-up item: CC(C)c1nnc2c(NCc3ccccn3)cc(NC(C)(C)C)nn12 [compound 52]
Found: 8.00 to 9.00

###

Could you please report measured chromatographic logD for the items listed next?
PROTOCOL_DESCRIPTION: LogD (HPLC)
Type: physicochemical
TEST_SETTINGS: by HPLC; Table 2
Response field accepts a number only; no unit should be typed.

Lookup: Find the recorded chromatographic logD belonging to CC(C)c1nnc2c(NCc3ccccc3)cc(NC3CCc4ccccc43)nn12 (racemic) and report it.
Found: 4.1

Lookup: Quick one: CC(C)c1nnc2c(NCc3ccccc3)cc(NC3Cc4ccccc4C3)nn12
Found: 4.08

Lookup: Next molecule: CSCCNc1cc(NCc2ccccc2)c2nnc(C(C)C)n2n1
Found: 3.07

###

TARGET_DESC: human recombinant A3AR (expressed in HEK-293 cells) (Homo sapiens)
Construct: host or cells: HEK-293 cells
PROTOCOL_DESCRIPTION: Adenosine receptors antagonism assay (Eurofins), [125I]-AB-MECA radioligand competition
Assay type: binding
TEST_SETTINGS: [125I]-AB-MECA 0.15 nM, r.t., 120 min; IC50 from dose-response curves; read-out: Potency Class A3AR
pIC50: −log10 of the molar value.
For each of the molecules below, state its pIC50.

Lookup: // pIC50 lookup, key: CCC(CC)Nc1cc(NCCc2ccccn2)c2nnc(C(C)C)n2n1 [compound 83]
Found: > 9.00

Lookup: Same thing, different molecule: CCC(CC)Nc1cc(NCCc2ccccn2)c2nnc(C3CC3)n2n1 [compound 86]
Found: > 9.00

Lookup: Please answer likewise for CC(C)c1nnc2c(NCc3ccccc3)cc(N[C@@H]3CCOC3)nn12 [compound 19]
Found: 7.00 to 8.00

Lookup: Note, next up: CC[C@H](CO)Nc1cc(Nc2ccccn2)c2nnc(C(C)C)n2n1 [compound 163]
Found: 7.00 to 8.00

Lookup: And for CCCc1nnc2c(NCc3ccccn3)cc(NC(CC)CC)nn12 [compound 60] ?
Found: 7.00 to 8.00

Lookup: Next entry: CCC(CC)Nc1cc(Nc2cccnc2)c2nnc(C3CC3)n2n1 [compound 173]
Found: > 9.00

Lookup: Same thing, different molecule: CCC(CC)CNc1cc(NCCc2ccccn2)c2nnc(C(C)C)n2n1 [compound 164]
Found: > 9.00

Lookup: Quick one: CC(C)c1nnc2c(NCc3ccccc3)cc(NC3CCCCC3)nn12 [compound 119]
Found: 7.00 to 8.00

Lookup: What do you get for CC(C)c1nnc2c(NCc3ccccn3)cc(NC3CC(F)(F)C3)nn12 [compound 54] ?
Found: 7.00 to 8.00
